conditions: 280.9 K; 101.33 kPa; Liquid; Pulse-echo method
speed of sound reference
Please reply with the bare figure in m/s and do not write the unit itself.

Retrieve speed of sound measured for C[NH2+]CCO.O=C[O-] [2-hydroxy-N-methylethanaminium formate] and print it.
1849.2

Retrieve speed of sound measured for CCC(=O)[O-].C[NH2+]CCO [2-hydroxy-N-methylethanaminium propionate] and print it.
1743.1

Retrieve speed of sound measured for CC(C)C(=O)[O-].C[NH2+]CCO [2-hydroxy-N-methylethanaminium isobutyrate] and print it.
1661.5

---
Retrieve speed of sound measured for CCCCC(=O)[O-].C[NH2+]CCO [2-hydroxy-N-methylethanaminium pentanoate] and print it.
1606.4

Retrieve speed of sound measured for CCCC(=O)[O-].C[NH2+]CCO [N-methyl-2-hydroxyethylammonium butanoate] and print it.
1673

* * *

conditions: 285.15 K; 101.33 kPa; Liquid; Pulse-echo method
measured.attribute: speed of sound (m/s)
Please reply with the bare figure in m/s and do not write the unit itself.

Retrieve speed of sound measured for CCCCC(=O)[O-].C[NH2+]CCO [2-hydroxy-N-methylethanaminium pentanoate] and print it.
1591.3

Retrieve speed of sound measured for CCCC(=O)[O-].C[NH2+]CCO [N-methyl-2-hydroxyethylammonium butanoate] and print it.
1657.7

Retrieve speed of sound measured for CCC(=O)[O-].C[NH2+]CCO [2-hydroxy-N-methylethanaminium propionate] and print it.
1729.4

Retrieve speed of sound measured for C[NH2+]CCO.O=C[O-] [2-hydroxy-N-methylethanaminium formate] and print it.
1840.8

Note: attention shifts to another entry.
Retrieve speed of sound measured for CC(C)C(=O)[O-].C[NH2+]CCO [2-hydroxy-N-methylethanaminium isobutyrate] and print it.
1648.7

* * *

conditions: 290.15 K; 101.33 kPa; Liquid; Pulse-echo method
speed of sound reference
Please reply with the bare figure in m/s and do not write the unit itself.

Recorded results for 3 molecules are shown here.
Retrieve speed of sound measured for CCCC(=O)[O-].C[NH2+]CCO [N-methyl-2-hydroxyethylammonium butanoate] and print it.
1640.5

Retrieve speed of sound measured for CCC(=O)[O-].C[NH2+]CCO [2-hydroxy-N-methylethanaminium propionate] and print it.
1713.9

Retrieve speed of sound measured for CC(C)C(=O)[O-].C[NH2+]CCO [2-hydroxy-N-methylethanaminium isobutyrate] and print it.
1634.2

---
Retrieve speed of sound measured for C[NH2+]CCO.O=C[O-] [2-hydroxy-N-methylethanaminium formate] and print it.
1831

Retrieve speed of sound measured for CCCCC(=O)[O-].C[NH2+]CCO [2-hydroxy-N-methylethanaminium pentanoate] and print it.
1574.5

* * *

settings: 292.4 K; 101.33 kPa; Liquid; Vibrating tube method
Numbers after ± are expanded uncertainties.
mass density reference
Please state the value followed by its unit.

Recorded results for 2 compounds are shown here.
Retrieve mass density measured for CC(C)C(=O)[O-].C[NH2+]CCO [2-hydroxy-N-methylethanaminium isobutyrate] and print it.
1047 ± 2.2 kg/m3

Retrieve mass density measured for CC(=O)[O-].C[NH2+]CCO [N-methyl-2-hydroxyethylammonium acetate] and print it.
1104.21 ± 2.2 kg/m3

---
Retrieve mass density measured for CCCCC(=O)[O-].C[NH2+]CCO [2-hydroxy-N-methylethanaminium pentanoate] and print it.
1020.12 ± 2.2 kg/m3

Retrieve mass density measured for CCCC(=O)[O-].C[NH2+]CCO [N-methyl-2-hydroxyethylammonium butanoate] and print it.
1043.15 ± 2.2 kg/m3

Retrieve mass density measured for C[NH2+]CCO.O=C[O-] [2-hydroxy-N-methylethanaminium formate] and print it.
1131.46 ± 2.2 kg/m3

Retrieve mass density measured for CCC(=O)[O-].C[NH2+]CCO [2-hydroxy-N-methylethanaminium propionate] and print it.
1075 ± 2.2 kg/m3

* * *

speed of sound reference
conditions: 287.4 K; 101.33 kPa; Liquid; Pulse-echo method
± gives the expanded uncertainty stated by the source.
Please state the value followed by its unit.

Recorded results for 4 compounds are shown here.
Retrieve speed of sound measured for C[NH2+]CCO.O=C[O-] [2-hydroxy-N-methylethanaminium formate] and print it.
1836.4 ± 2.2 m/s

Retrieve speed of sound measured for CCC(=O)[O-].C[NH2+]CCO [2-hydroxy-N-methylethanaminium propionate] and print it.
1722.4 ± 2.2 m/s

Retrieve speed of sound measured for CCCC(=O)[O-].C[NH2+]CCO [N-methyl-2-hydroxyethylammonium butanoate] and print it.
1649.9 ± 2.1 m/s

Retrieve speed of sound measured for CC(C)C(=O)[O-].C[NH2+]CCO [2-hydroxy-N-methylethanaminium isobutyrate] and print it.
1642.2 ± 2.1 m/s

---
Retrieve speed of sound measured for CCCCC(=O)[O-].C[NH2+]CCO [2-hydroxy-N-methylethanaminium pentanoate] and print it.
1583.7 ± 2.1 m/s

* * *

settings: 296.9 K; 101.33 kPa; Liquid; Vibrating tube method
Numbers after ± are expanded uncertainties.
mass density reference
Please state the value followed by its unit.

Recorded results for 5 compounds are shown here.
Retrieve mass density measured for CC(C)C(=O)[O-].C[NH2+]CCO [2-hydroxy-N-methylethanaminium isobutyrate] and print it.
1044.17 ± 2.2 kg/m3

Retrieve mass density measured for CCC(=O)[O-].C[NH2+]CCO [2-hydroxy-N-methylethanaminium propionate] and print it.
1072.07 ± 2.2 kg/m3

Retrieve mass density measured for C[NH2+]CCO.O=C[O-] [2-hydroxy-N-methylethanaminium formate] and print it.
1128.94 ± 2.2 kg/m3

Retrieve mass density measured for CCCCC(=O)[O-].C[NH2+]CCO [2-hydroxy-N-methylethanaminium pentanoate] and print it.
1017.06 ± 2.2 kg/m3

Retrieve mass density measured for CC(=O)[O-].C[NH2+]CCO [N-methyl-2-hydroxyethylammonium acetate] and print it.
1101.56 ± 2.2 kg/m3

Note: attention shifts to another entry.
Retrieve mass density measured for CCCC(=O)[O-].C[NH2+]CCO [N-methyl-2-hydroxyethylammonium butanoate] and print it.
1040.1 ± 2.2 kg/m3

* * *

settings: 297.4 K; 101.33 kPa; Liquid; Pulse-echo method
speed of sound reference
Please reply with the bare figure in m/s and do not write the unit itself.

Recorded results for 4 molecules are shown here.
Retrieve speed of sound measured for CCC(=O)[O-].C[NH2+]CCO [2-hydroxy-N-methylethanaminium propionate] and print it.
1692.2

Retrieve speed of sound measured for C[NH2+]CCO.O=C[O-] [2-hydroxy-N-methylethanaminium formate] and print it.
1816.8

Retrieve speed of sound measured for CCCCC(=O)[O-].C[NH2+]CCO [2-hydroxy-N-methylethanaminium pentanoate] and print it.
1551.1

Retrieve speed of sound measured for CCCC(=O)[O-].C[NH2+]CCO [N-methyl-2-hydroxyethylammonium butanoate] and print it.
1617

Note: attention shifts to another entry.
Retrieve speed of sound measured for CC(C)C(=O)[O-].C[NH2+]CCO [2-hydroxy-N-methylethanaminium isobutyrate] and print it.
1613.4

* * *

conditions: 285.9 K; 101.33 kPa; Liquid; Vibrating tube method
mass density reference
Please reply with the bare figure in kg/m3 and do not write the unit itself.

Retrieve mass density measured for C[NH2+]CCO.O=C[O-] [2-hydroxy-N-methylethanaminium formate] and print it.
1135.09

---
Retrieve mass density measured for CCCC(=O)[O-].C[NH2+]CCO [N-methyl-2-hydroxyethylammonium butanoate] and print it.
1047.52

Retrieve mass density measured for CCC(=O)[O-].C[NH2+]CCO [2-hydroxy-N-methylethanaminium propionate] and print it.
1079.25

Retrieve mass density measured for CC(C)C(=O)[O-].C[NH2+]CCO [2-hydroxy-N-methylethanaminium isobutyrate] and print it.
1051.14

Retrieve mass density measured for CCCCC(=O)[O-].C[NH2+]CCO [2-hydroxy-N-methylethanaminium pentanoate] and print it.
1024.5

Retrieve mass density measured for CC(=O)[O-].C[NH2+]CCO [N-methyl-2-hydroxyethylammonium acetate] and print it.
1108.17

* * *

conditions: 311.4 K; 101.33 kPa; Liquid; Vibrating tube method
mass density reference
Please reply with the bare figure in kg/m3 and do not write the unit itself.

Recorded results for 5 compounds are shown here.
Retrieve mass density measured for CCCC(=O)[O-].C[NH2+]CCO [N-methyl-2-hydroxyethylammonium butanoate] and print it.
1030.34

Retrieve mass density measured for CC(C)C(=O)[O-].C[NH2+]CCO [2-hydroxy-N-methylethanaminium isobutyrate] and print it.
1034.81

Retrieve mass density measured for CCC(=O)[O-].C[NH2+]CCO [2-hydroxy-N-methylethanaminium propionate] and print it.
1062.65

Retrieve mass density measured for CCCCC(=O)[O-].C[NH2+]CCO [2-hydroxy-N-methylethanaminium pentanoate] and print it.
1007.31

Retrieve mass density measured for CC(=O)[O-].C[NH2+]CCO [N-methyl-2-hydroxyethylammonium acetate] and print it.
1092.85

Note: attention shifts to another entry.
Retrieve mass density measured for C[NH2+]CCO.O=C[O-] [2-hydroxy-N-methylethanaminium formate] and print it.
1120.85

* * *

details: 301.9 K; 101.33 kPa; Liquid; Vibrating tube method
Numbers after ± are expanded uncertainties.
measured.attribute: mass density

Recorded results for 2 molecules are shown here.
Retrieve mass density measured for CC(C)C(=O)[O-].C[NH2+]CCO [2-hydroxy-N-methylethanaminium isobutyrate] and print it.
1040.96 ± 2.2 kg/m3

Retrieve mass density measured for CCCCC(=O)[O-].C[NH2+]CCO [2-hydroxy-N-methylethanaminium pentanoate] and print it.
1013.7 ± 2.1 kg/m3

---
Retrieve mass density measured for CCC(=O)[O-].C[NH2+]CCO [2-hydroxy-N-methylethanaminium propionate] and print it.
1068.86 ± 2.2 kg/m3

Retrieve mass density measured for CC(=O)[O-].C[NH2+]CCO [N-methyl-2-hydroxyethylammonium acetate] and print it.
1098.59 ± 2.2 kg/m3

Retrieve mass density measured for C[NH2+]CCO.O=C[O-] [2-hydroxy-N-methylethanaminium formate] and print it.
1126.15 ± 2.2 kg/m3

Retrieve mass density measured for CCCC(=O)[O-].C[NH2+]CCO [N-methyl-2-hydroxyethylammonium butanoate] and print it.
1036.7 ± 2.2 kg/m3
